Where do the numbers come from? From BigSolDB 2.1.

conditions: in n-propanol, 298.15 K
quantityName: solubility (mole fraction)
When you answer, write just the number.

Exam item: Look up and state reported solubility (mole fraction) for O=C(O)c1cc(O)c(O)c(O)c1
Marked response: 0.0413

----------
settings: in isopropanol, 318.15 K
quantityName: solubility (mole fraction)
When you answer, write just the number.

Exam item: Look up and state reported solubility (mole fraction) for O=C(O)c1cc(O)c(O)c(O)c1
Marked response: 0.0409

----------
settings: in acetonitrile, 298.15 K
quantityName: solubility (mole fraction)
When you answer, write just the number.

Exam item: Look up and state reported solubility (mole fraction) for O=C(O)c1cc(O)c(O)c(O)c1
Marked response: 0.0341

----------
conditions: in isopropanol, 308.15 K
quantityName: solubility (mole fraction)

Exam item: Look up and state reported solubility (mole fraction) for O=C(O)c1cc(O)c(O)c(O)c1
Marked response: 0.0386

----------
conditions: in isopropanol, 313.15 K
quantityName: solubility (mole fraction)
When you answer, write just the number.

Exam item: Look up and state reported solubility (mole fraction) for O=C(O)c1cc(O)c(O)c(O)c1
Marked response: 0.04

----------
settings: in acetonitrile, 293.15 K
quantityName: solubility (mole fraction)
When you answer, write just the number.

Exam item: Look up and state reported solubility (mole fraction) for O=C(O)c1cc(O)c(O)c(O)c1
Marked response: 0.0274

----------
conditions: in isopropanol, 293.15 K
quantityName: solubility (mole fraction)
When you answer, write just the number.

Exam item: Look up and state reported solubility (mole fraction) for O=C(O)c1cc(O)c(O)c(O)c1
Marked response: 0.028

----------
conditions: in n-propanol, 303.15 K
quantityName: solubility (mole fraction)
When you answer, write just the number.

Exam item: Look up and state reported solubility (mole fraction) for O=C(O)c1cc(O)c(O)c(O)c1
Marked response: 0.0429

----------
details: in acetonitrile, 318.15 K
quantityName: solubility (mole fraction)
When you answer, write just the number.

Exam item: Look up and state reported solubility (mole fraction) for O=C(O)c1cc(O)c(O)c(O)c1
Marked response: 0.0405

----------
conditions: in water, 298.15 K
quantityName: solubility (mole fraction)
When you answer, write just the number.

Exam item: Look up and state reported solubility (mole fraction) for O=C(O)c1cc(O)c(O)c(O)c1
Marked response: 0.00148

----------
conditions: in water, 318.15 K
quantityName: solubility (mole fraction)
When you answer, write just the number.

Exam item: Look up and state reported solubility (mole fraction) for O=C(O)c1cc(O)c(O)c(O)c1
Marked response: 0.0038
